Each entry below carries its recorded TGI.
System: OVCAR-5 ovarian
Test Method Notes: NCI tumour cell line growth inhibition, 48 h

CC(=O)OC1CC[C@@]2(C)C(CC(OC3OC(CO)C(O)C(O)C3O)[C@]3(C)C2CCC24CC23CC[C@H]4C(C)CC(O)[C@@H](O)C(C)(C)O)C1(C)C (stereo not given in full) = > 50 µM
O=C(O)CSc1ccn(Cc2ccccc2)c1 = > 100 µM

Form field: reported TGI of `O=C(c1ccc(Cl)cc1)N(C(=S)N1CCN(c2ccccc2)CC1)C1CCCCC1`
> 100 µM

Also Cn1c(=O)c(C2c3ccccc3Oc3c2c(=O)n(C)c2ccccc32)c(O)c2ccccc21 (stereo not given) , if possible.
> 100 µM

And for COC12OC3(C4OC41)C(C(=O)O[C@H]3CO[Si](C)(C)C(C)(C)C)C2S(=O)(=O)c1ccccc1 (stereo not given in full) ?
> 12.2 µM

###

TGI values, listed per item
Test system: A549 NSCLC
Test Method Notes: NCI tumour cell line growth inhibition, 48 h

# example entries with known answers
Nc1nc(Cl)cc2c1ncn2C1OC(CO)C(O)C1O (stereo not drawn) = > 100 µM
N#CCCN(CCN(CCN(C(=O)Nc1ccccc1)c1ccccc1)C(=O)Nc1ccccc1)C(=O)Nc1ccccc1 = > 100 µM

Record `CC(=N\O)/C(C)=N/O.CC(=N\O)/C(C)=N/O.[Pd]` : what is its TGI with A549 NSCLC?
> 10 µM

###

# TGI listing for each entry below
Tested on: DU-145 prostate
Test Method Notes: NCI tumour cell line growth inhibition, 48 h

Examples from the recorded data:
CC(CC(C)[C@H]1CCC2[C@H]3C(CC[C@@]21C)[C@@]1(C)CCC(O)C[C@H]1C[C@@H]3O)C(=O)O (some centres not stated) = > 100 µM
COC(CO[Si](C)(C)N[Si](C)(C)OCC(OC)c1ccccc1)c1ccccc1 (configuration not stated) = > 100 µM

Query TGI on DU-145 prostate for `O=C(/C=C/c1ccccc1O)CC(=O)/C=C/c1ccccc1O`
> 31.6 µM

Now the compound Nc1nc(Cl)cc2c1ncn2C1OC(CO)C(O)C1O (configuration not stated)
> 100 µM

Now this one: `NC(=O)NC1=NCCC(=O)N1CCc1c[nH]c2ccccc12`
52 µM

Now give it for `Nc1c2c(nc3ccccc13)-c1ccccc1CCC2` too.
32.8 µM

Consider next the compound `CC(=O)NC1=NC(=O)/C(=C/c2ccc(Cl)cc2Cl)N1C` in the same way.
> 100 µM

Try the compound `O=C1CCc2cc([N+](=O)[O-])ccc2O1`
> 100 µM

Now consider `COC1=C(NC(C)=O)C(=O)c2nc3n(c2C1=O)CCC3` and answer again.
35.8 µM

What would you report for COC(=O)C1=C(O)C(C(=O)OC)[C@@]2(O)[C@@H](C(=O)OC)C(c3ccccc3C(F)(F)F)C[C@@H]1[C@@H]2C(=O)OC (some centres not stated) ?
10.9 µM

What do you get for CCCCC#Cc1c(I)n(C2OC(CO[Si](C)(C)C(C)(C)C)C3OC(C)(C)OC32)c(=O)[nH]c1=O (configuration not stated) ?
12.9 µM

Now consider `O=C1C=Cc2cc3ccccc3c3cccc1c23` and answer again.
> 100 µM

What about `Nc1nc(-c2ccccc2)cc(-c2ccc(F)cc2)c1-c1ccc(Cl)cc1` ?
> 100 µM

Field entry: `Cc1cc(S(=O)(=O)Nc2nc(N)n(-c3ccccc3)n2)c(S)cc1Cl`
> 100 µM

# repeat for `O=C(O)CSc1ccn(Cc2ccccc2)c1`
> 100 µM

Further, for C=CCCCN1C(=O)C2C3c4ccccc4C(C=O)(c4ccccc43)C2C1=O (configuration not stated) ?
26.1 µM

What would you report for N#CC1=C(N)Oc2c(sc3c(F)cccc23)C1c1ccc(Cl)cc1 (configuration not stated) ?
12.9 µM

Repeat with O=C(O)CC(Cc1ccccc1)C(=O)O (configuration not stated)
> 100 µM

And the next one, `O=C(CCCCCn1c2ccccc2c2c3c(c4c5ccccc5[nH]c4c21)C(=O)N(O)C3=O)N1CCOCC1` ?
12.2 µM

Would you kindly repeat that for `O=c1[nH]nc(Nc2ccccc2)c2nnn(Cc3ccccc3)c12` ?
> 100 µM

What would you report for `COc1cc2c(cc1OC)[C@@H]1[C@H](C2=O)c2ccc([N+](=O)[O-])cc2C(=O)N1CCCBr` ?
> 20.4 µM

Next: COC(=O)C(=O)C(C(=O)C(=O)Nc1ccc(Cl)cc1Cl)c1nc2ccc(Cl)cc2[nH]c1=O (configuration not stated)
> 100 µM

Continue with `COc1cc(CNc2nc3cc(C(F)(F)F)ccc3nc2C(=O)O)cc(OC)c1OC`
> 100 µM

###

Entries and their TGI values follow.
Test system: IGROV1 ovarian
Test Method Notes: NCI tumour cell line growth inhibition, 48 h

# annotated cases, reported TGI shown
CCCCc1c2c(nc3c1CCc1cc(C=O)c(N)nc1-3)/C(=C/c1ccccc1)CCC2 = > 100 µM
Cc1ccc(N=c2oc3c(ccc4ccccc43)nc2Nc2ccc(C)cc2)cc1 = > 100 µM

GET /values?readout=TGI&item= `O=C(/C=C/c1ccccc1O)CC(=O)/C=C/c1ccccc1O`
25.7 µM

###

Tested on: LOX IMVI melanoma
Test Method Notes: NCI tumour cell line growth inhibition, 48 h
Assay Metric: TGI

See these solved cases before continuing.
C=CCn1c(-c2ccc(N=NNc3ccc(-c4n[nH]c(=S)n4CC=C)cc3)cc2)n[nH]c1=S = > 100 µM
O=C(O)C(=O)/C=C\c1ccc(Cl)cc1 = > 100 µM
COC(=O)C1=C(O)C(C(=O)OC)[C@@]2(O)[C@@H](C(=O)OC)C(c3ccc(OC(=O)C(Cc4ccccc4)NC(C)=O)cc3)C[C@@H]1[C@@H]2C(=O)OC (some centres not stated) = 32.2 µM
C/C(=C/CC[C@](C)(OC1OC(CO)C(O)C(O)C1OC1OC(C)C(O)C(O)C1O)[C@H]1CC[C@]2(C)[C@@H]1CC[C@@H]1[C@@]3(C)CC[C@H](O)C(C)(C)[C@@H]3C[C@H](O)[C@]12C)CO (some centres not stated) = > 100 µM
O=C(O)CSc1ccn(Cc2ccccc2)c1 = > 100 µM
CC(=O)O/N=C1\C=Cc2c(no[n+]2[O-])C1=O = 36.2 µM

Reported TGI, compound `CCCCc1c2c(nc3c1CCc1cc(C=O)c(N)nc1-3)/C(=C/c1ccccc1)CCC2` : ____
> 100 µM

Lookup `N=C(N)c1ccc(-c2ccc(-c3ccco3)o2)cc1`
5.2 µM

Queued: `COc1ccc(/C=C/C=C2C(=O)NC(=S)NC2=O)cc1`
3.97 µM

Proceed to `OCCOCn1nc(-c2ccccc2)nc1-c1cnccn1`
> 100 µM

Request: `Brc1ccc2c(c1)[C@H]1CCc3c([nH]c4ccccc34)[C@H]1N2`
19.1 µM

And CC(=O)OCC1OC(n2c(-c3ccc(N)cc3)cc(-c3ccco3)c(C#N)c2=O)C(OC(C)=O)C(OC(C)=O)C1OC(C)=O (configuration not stated) ?
> 50 µM

###

Test system: T-47D breast
Test Method Notes: NCI tumour cell line growth inhibition, 48 h
Assay Metric: TGI

Use the examples below as a reference point.
O=C(CCCCCn1c2ccccc2c2c3c(c4c5ccccc5[nH]c4c21)C(=O)N(O)C3=O)N1CCOCC1 = 7.89 µM
O=C(O)/C=C/C(=O)Nc1cccc2c1-c1ccccc1C2=O = > 100 µM
CN1CCN(c2nc(NCCNc3ccnc4cc(Cl)ccc34)c3ccccc3n2)CC1 = 4.79 µM
COC(=O)[C@@]12CC3CN(Cc4c1[nH]c1ccccc41)C2CC3=O = > 100 µM
COc1ccc(/C(C#N)=C/c2nc3c(N4CCOCC4)nc(Cl)nc3n2C)cc1OC = 3.15 µM
O=C(OCc1ccccc1[N+](=O)[O-])N1c2ccccc2[C@@]23O[C@]24CCC[C@H]3C#C/C=C\C#C[C@H]14 = > 100 µM
O=C(O)C(C1NCCS1)N1Cc2ccccc2C1 (stereo not drawn) = > 100 µM
COc1ccc(C2CC(c3cccc(Nc4ccnc5cc(Cl)ccc45)c3)=NN2c2ccccc2)cc1 (stereo not drawn) = 20 µM

Could you share which TGI value was measured for `O=C1NC(N2CCOCC2)=N/C1=C\c1ccccc1` ?
> 100 µM

Another compound: `O=C(NC12CC3CC(CC(C3)C1)C2)n1cnc2cncnc21`
> 100 µM

Next record, please: `COc1ccc(NC(=O)c2cc(NC(=O)/C=C/c3ccccc3)c(OC)c(OC)c2)cc1`
> 100 µM

###

Test system: HCT-15 colon
Test Method Notes: NCI tumour cell line growth inhibition, 48 h
Assay Metric: GI50

Example molecules with recorded GI50:
O=C1/C(=C/c2ccc(F)cc2)CN(Cc2cn(CCNc3ccnc4cc(Cl)ccc34)nn2)C/C1=C\c1ccc(F)cc1 = 1.4 µM
COc1ccc(C2CC(c3cccc(Nc4ccnc5cc(Cl)ccc45)c3)=NN2c2ccccc2)cc1 (stereo not given) = 0.335 µM
CCSc1sc(-c2ccc(C)cc2)nc1[P+](c1ccccc1)(c1ccccc1)c1ccccc1 = 0.315 µM
COc1cc2c(cc1OC)[C@@H]1[C@H](C2=O)c2ccc([N+](=O)[O-])cc2C(=O)N1CCCBr = 0.369 µM

Param readout = GI50; param system = HCT-15 colon; param query = COc1cc(C2CC(c3ccc(C)cc3)=NN2C(C)=O)ccc1Oc1ccnc2cc(Cl)ccc12 (stereo not given) ; response: value
> 100 µM
